Target: human ether-à-go-go-related gene (hERG) potassium channel (human, UniProt Q12809);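 further: peak tail current of the secondary pulse compared with the same well before compound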
Sequence (Q12809 whole entry, looked up): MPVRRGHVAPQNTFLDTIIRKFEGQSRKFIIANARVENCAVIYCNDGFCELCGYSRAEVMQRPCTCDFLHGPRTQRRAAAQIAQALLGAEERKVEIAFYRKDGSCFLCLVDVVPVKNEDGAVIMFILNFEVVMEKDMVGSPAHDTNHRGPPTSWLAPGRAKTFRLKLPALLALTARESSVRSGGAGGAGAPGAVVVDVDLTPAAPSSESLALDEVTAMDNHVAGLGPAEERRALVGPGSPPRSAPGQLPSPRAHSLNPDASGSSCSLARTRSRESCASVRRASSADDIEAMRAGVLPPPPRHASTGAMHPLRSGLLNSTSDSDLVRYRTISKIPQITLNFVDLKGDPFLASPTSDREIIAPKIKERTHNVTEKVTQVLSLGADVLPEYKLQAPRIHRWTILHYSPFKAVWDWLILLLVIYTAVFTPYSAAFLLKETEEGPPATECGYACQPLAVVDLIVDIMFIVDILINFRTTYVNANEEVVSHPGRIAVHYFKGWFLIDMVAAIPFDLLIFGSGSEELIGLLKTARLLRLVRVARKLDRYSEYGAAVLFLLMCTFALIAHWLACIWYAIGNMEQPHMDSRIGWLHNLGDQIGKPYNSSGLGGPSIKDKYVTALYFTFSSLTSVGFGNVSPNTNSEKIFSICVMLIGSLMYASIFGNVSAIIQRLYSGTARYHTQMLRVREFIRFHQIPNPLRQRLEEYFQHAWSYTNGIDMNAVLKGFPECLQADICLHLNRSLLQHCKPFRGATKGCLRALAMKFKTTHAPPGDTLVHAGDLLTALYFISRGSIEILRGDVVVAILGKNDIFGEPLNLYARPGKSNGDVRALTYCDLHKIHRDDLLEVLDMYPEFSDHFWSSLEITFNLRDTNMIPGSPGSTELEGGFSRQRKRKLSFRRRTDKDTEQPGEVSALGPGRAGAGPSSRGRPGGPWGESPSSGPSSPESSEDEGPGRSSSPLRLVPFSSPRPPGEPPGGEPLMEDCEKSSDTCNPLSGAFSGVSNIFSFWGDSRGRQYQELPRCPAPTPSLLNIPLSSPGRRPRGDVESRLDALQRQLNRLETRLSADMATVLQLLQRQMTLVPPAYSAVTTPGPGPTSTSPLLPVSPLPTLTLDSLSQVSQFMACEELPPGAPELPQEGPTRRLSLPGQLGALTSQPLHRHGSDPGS
Assay: primary screen, population patch clamp on CHO cells stably expressing hERG; higher = less effect of the substance
Out of some 310,000 compounds screened, about 14,000 (4.5%) showed an effect of 50% or more. The effect is printed as a negative number. What follows is part of a selection rich in strong results, with near analogues and random picks from the rest.
Each entry below carries its reported hERG current change (%, negative = inhibition) at 10uM.
metric: hERG current change (%, negative = inhibition) at 10uM (%)

molecule | assay system | result value
Cc1nc(C)c(-c2csc(Nc3ccc(F)cc3)n2)s1 | human ether-à-go-go-related gene (hERG) potassium channel (human, UniProt Q12809) | -25.1
CC(C)CCn1c(SCC(N)=O)nc2c1c(=O)n(C)c(=O)n2C | human ether-à-go-go-related gene (hERG) potassium channel (human, UniProt Q12809) | 6.57
O=C(CCc1nnc2ccc(N3CCCC3)nn12)Nc1cc(F)ccc1F | human ether-à-go-go-related gene (hERG) potassium channel (human, UniProt Q12809) | -50.4
CC1CCN(c2ccc3nnc(CCC(=O)Nc4cc(F)ccc4F)n3n2)CC1 | human ether-à-go-go-related gene (hERG) potassium channel (human, UniProt Q12809) | -37.5
Cc1cccc(C)c1-n1nnnc1C(C)(C)N1CCN(N=O)CC1 | human ether-à-go-go-related gene (hERG) potassium channel (human, UniProt Q12809) | 14.7
COc1cccc(N2CCN(c3ccc4nnc(CCC(=O)Nc5ccccc5OC)n4n3)CC2)c1 | human ether-à-go-go-related gene (hERG) potassium channel (human, UniProt Q12809) | -62.6
O=C(CSc1ncccn1)Nc1ncc(C(F)(F)F)cc1Cl | human ether-à-go-go-related gene (hERG) potassium channel (human, UniProt Q12809) | 47.2
COc1ccc(N2CCN(C(=O)CCc3nnc4ccc(N5CCC(C)CC5)nn34)CC2)cc1 | human ether-à-go-go-related gene (hERG) potassium channel (human, UniProt Q12809) | -66.1
Cc1ccc(NC2=NCCCS2)c(C)c1C | human ether-à-go-go-related gene (hERG) potassium channel (human, UniProt Q12809) | -11.5
COc1ccc(N2CCN(C(=O)c3ccc(NS(=O)(=O)c4ccc(F)c(F)c4)cc3)CC2)cc1 | human ether-à-go-go-related gene (hERG) potassium channel (human, UniProt Q12809) | -44.3
COc1cccc(NC(=O)CCc2nnc3ccc(N4CCN(c5cccc(OC)c5)CC4)nn23)c1 | human ether-à-go-go-related gene (hERG) potassium channel (human, UniProt Q12809) | 13.6
O=C1NC(=O)C(=Cc2ccc(N3CCN(C(=O)c4ccccc4)CC3)c([N+](=O)[O-])c2)C(=O)N1 | human ether-à-go-go-related gene (hERG) potassium channel (human, UniProt Q12809) | -67.1
O=C(c1ccc(Cl)cc1)c1ccc(OCC(O)CN2CCCCC2)cc1 (stereo not drawn) | human ether-à-go-go-related gene (hERG) potassium channel (human, UniProt Q12809) | -75.1
CCCCc1c(C)nc2c(OC)cccc2c1SCC(=O)O | human ether-à-go-go-related gene (hERG) potassium channel (human, UniProt Q12809) | 12.3
COc1ccccc1N1CCN(C(=O)CCc2nnc3ccc(N4CCCC4)nn23)CC1 | human ether-à-go-go-related gene (hERG) potassium channel (human, UniProt Q12809) | -34.1
COc1ccc(S(=O)(=O)N2CCOCC2)cc1NC(=O)COc1ccccc1 | human ether-à-go-go-related gene (hERG) potassium channel (human, UniProt Q12809) | -40.5
Cc1[nH]c(C)c(S(=O)(=O)N2CCN(c3cccc(Cl)c3)CC2)c1C(=O)N1CCCC1 | human ether-à-go-go-related gene (hERG) potassium channel (human, UniProt Q12809) | -6.94
CN1C(=O)C(=Cc2ccc(N3CCOCC3)c([N+](=O)[O-])c2)C(=O)N(C)C1=O | human ether-à-go-go-related gene (hERG) potassium channel (human, UniProt Q12809) | 11.4
Cl.OC(COc1ccc(OCC(O)CN2CCCCCC2)cc1)CN1CCCCCC1 (stereo not drawn) | human ether-à-go-go-related gene (hERG) potassium channel (human, UniProt Q12809) | 9.75
Cc1nn(C)c2c(=O)c(=O)c2n(C)[nH]1 | human ether-à-go-go-related gene (hERG) potassium channel (human, UniProt Q12809) | 18
O=C1NCCN1CCNS(=O)(=O)c1cc(C(F)(F)F)cc(C(F)(F)F)c1 | human ether-à-go-go-related gene (hERG) potassium channel (human, UniProt Q12809) | 17.2
O=C(c1ccccc1)c1ccc(OCC(O)CN2CCCCC2)cc1 (stereo not drawn) | human ether-à-go-go-related gene (hERG) potassium channel (human, UniProt Q12809) | -39.9
CCCCCOc1ccc(/C(C)=N/NC2=NCCN2)cc1 | human ether-à-go-go-related gene (hERG) potassium channel (human, UniProt Q12809) | -39.8
COc1cc(/C=N/NC(=O)c2cc(C3CC3)[nH]n2)ccc1O | human ether-à-go-go-related gene (hERG) potassium channel (human, UniProt Q12809) | -12.7
Cc1c(C(=O)N2CCOCC2)c(S(=O)(=O)N2CCN(c3ccc(Cl)cc3)CC2)c(C)n1C | human ether-à-go-go-related gene (hERG) potassium channel (human, UniProt Q12809) | -37.6
COc1ccc(N2CCN(C(=O)CCc3nnc4ccc(N5CCOCC5)nn34)CC2)cc1 | human ether-à-go-go-related gene (hERG) potassium channel (human, UniProt Q12809) | -5.83
NC(=O)c1nsc(C(=O)N(c2ccc3c(c2)OCO3)C(C(=O)NCC2CCCO2)c2ccc(F)cc2)c1N (stereo not drawn) | human ether-à-go-go-related gene (hERG) potassium channel (human, UniProt Q12809) | -8.25
COc1ccccc1N1CCN(C(=O)CCc2nnc3ccc(N4CCC(C)CC4)nn23)CC1 | human ether-à-go-go-related gene (hERG) potassium channel (human, UniProt Q12809) | -33.5
O=C(c1ccc(Cl)cc1)c1ccc(OCC(O)CN2CCOCC2)cc1 (stereo not drawn) | human ether-à-go-go-related gene (hERG) potassium channel (human, UniProt Q12809) | -19.7
OC(COc1ccc2ccccc2c1)CN1CCCC1 (stereo not drawn) | human ether-à-go-go-related gene (hERG) potassium channel (human, UniProt Q12809) | -19.1
Cc1ccc(S(=O)(=O)N(C)C)cc1[N+](=O)[O-] | human ether-à-go-go-related gene (hERG) potassium channel (human, UniProt Q12809) | -4.14
CN(C)c1ccc(C=C2C(=O)NC(=O)NC2=O)cc1[N+](=O)[O-] | human ether-à-go-go-related gene (hERG) potassium channel (human, UniProt Q12809) | 30.8
COc1ccc(N2CCN(C(=O)c3ccc(F)cc3)CC2)c([N+](=O)[O-])c1 | human ether-à-go-go-related gene (hERG) potassium channel (human, UniProt Q12809) | -70.1
COc1cccc(NC(C)(C)c2nnnn2-c2c(C)cccc2C)c1 | human ether-à-go-go-related gene (hERG) potassium channel (human, UniProt Q12809) | -63.4
O=C(CCc1nnc2ccc(N3CCCC3)nn12)Nc1ccc(F)cc1F | human ether-à-go-go-related gene (hERG) potassium channel (human, UniProt Q12809) | 8.27
CCOC(=O)c1c(N)c2cc([N+](=O)[O-])ccc2n1C | human ether-à-go-go-related gene (hERG) potassium channel (human, UniProt Q12809) | 18.1
COCCCNC(=O)Cn1cnc2sc(C)c(S(=O)(=O)N3CC(C)CC(C)C3)c2c1=O (stereo not drawn) | human ether-à-go-go-related gene (hERG) potassium channel (human, UniProt Q12809) | -0.637
CC1CCN(c2ccc3nnc(CCC(=O)N4CCN(c5ccccc5F)CC4)n3n2)CC1 | human ether-à-go-go-related gene (hERG) potassium channel (human, UniProt Q12809) | -62.6
CCOC(=O)N1CCN(c2ccc(F)cc2[N+](=O)[O-])CC1 | human ether-à-go-go-related gene (hERG) potassium channel (human, UniProt Q12809) | -10.5
